Quick list: Ki per entry.
Target: recombinant human muscarinic M2 receptor (Homo sapiens, UniProt P08172)
Construct: purchased Perkin Elmer, Waltham, USA; host or cells: CHO cells (membrane suspensions)
Sequence (P08172 1-466): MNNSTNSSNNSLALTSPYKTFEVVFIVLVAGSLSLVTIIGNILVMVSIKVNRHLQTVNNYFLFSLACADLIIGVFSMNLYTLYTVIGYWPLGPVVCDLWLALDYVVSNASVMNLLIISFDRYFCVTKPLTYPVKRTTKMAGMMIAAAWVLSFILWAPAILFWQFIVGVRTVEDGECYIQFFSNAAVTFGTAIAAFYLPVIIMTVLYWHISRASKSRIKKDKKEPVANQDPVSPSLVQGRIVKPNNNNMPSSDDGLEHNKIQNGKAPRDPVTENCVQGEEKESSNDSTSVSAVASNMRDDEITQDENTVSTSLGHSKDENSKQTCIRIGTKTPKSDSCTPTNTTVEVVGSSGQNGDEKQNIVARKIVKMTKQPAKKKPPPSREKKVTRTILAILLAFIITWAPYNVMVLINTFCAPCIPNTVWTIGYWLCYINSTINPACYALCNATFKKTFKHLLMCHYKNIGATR
Test: competitive binding against [3H]NMS, CHO cell membranes, M2
Settings: first series, n = 3, [3H]NMS 0.2 nM; read-out: Ki for M2
Dear colleague, please return just the value in µM, with no unit written.

[
  {
    "molecule": "Ic1ccc(COC2CC3CCCC2N3)cc1 (centres unmarked)",
    "unitDescriptor": "µM",
    "Ki": 3
  }
]

Challenge: Please report the recorded Ki for O=C(OC1CC2CCCC1N2)c1ccc(I)cc1 (centres unmarked) .
Response given: 6.8

====

target: recombinant human muscarinic M2 receptor (Homo sapiens, UniProt P08172); construct: purchased Perkin Elmer, Waltham, USA; host or cells: CHO cells (membrane suspensions); assay: competitive binding against [3H]NMS, CHO cell membranes, M2; details: Ki to M2 receptors, range over both experiments (abstract)
assayReadout: Ki

Challenge: Please report the recorded Ki for CC(=O)OC1CC2CCCC1N2 (stereo not drawn) [5a, 6β-acetoxynortropane, reference compound] .
Response given: 70 to 90 nM
